Where do the numbers come from? From patent US5561154A.

Biological target: α1 -adrenoreceptors
Assay: Radioligand binding, (125I)-HEAT, rabbit urethral membranes
Conditions: male rabbit urethral membrane preparation, (125I)-HEAT
Where a name gives a salt, the structure may show the parent alone.
MEASUREMENT_KIND: Ki (nM)
Field: numeric (nM). Do not append units.

What value of Ki has been reported for the following compound? Cc1cc(OCCN(C)C)c(C(C)C)cc1O [DAM.HCl, Deacetyl moxisylyte hydrochloride] 109
